Tested on: MGC-803
Test: Growth inhibition of human MGC803 cells at 10 uM after 72 hrs by MTT assay
Format: functional
Settings: MGC-803, 72 h, read-out: GI
Lab note: compare inhibition of growth at 10 µM against 30%. Equal or greater, write Satisfied. Smaller, write Not satisfied.

[ask] Is inhibition of growth at 10 µM at least 30%? Consider `C[C@H]1[C@H](C)CC[C@]2(C(=O)OCCN3CCN(C(=O)c4ccccc4Cl)CC3)CC[C@]3(C)C(=CC[C@@H]4[C@@]5(C)CC[C@H](O)C(C)(C)[C@@H]5CC[C@]43C)[C@H]12`
[reply] Satisfied

[ask] Entry `C[C@H]1[C@H](C)CC[C@]2(C(=O)OCCN3CCN(C(=O)c4cccc(F)c4)CC3)CC[C@]3(C)C(=CC[C@@H]4[C@@]5(C)CC[C@H](O)C(C)(C)[C@@H]5CC[C@]43C)[C@H]12` : is its inhibition of growth at 10 µM no less than 30%?
[reply] Satisfied

[ask] Please check the record `COc1ccc(C(=O)N2CCN(CCOC(=O)[C@]34CC[C@@H](C)[C@H](C)[C@H]3C3=CC[C@@H]5[C@@]6(C)CC[C@H](O)C(C)(C)[C@@H]6CC[C@@]5(C)[C@]3(C)CC4)CC2)cc1OC` and state if its inhibition of growth at 10 µM is at or above 30%.
[reply] Not satisfied

[ask] hey, is inhibition of growth at 10 µM for this one >= 30%? `C[C@H]1[C@H](C)CC[C@]2(C(=O)OCCN3CCN(C(=O)c4ccc([N+](=O)[O-])cc4)CC3)CC[C@]3(C)C(=CC[C@@H]4[C@@]5(C)CC[C@H](O)C(C)(C)[C@@H]5CC[C@]43C)[C@H]12`
[reply] Not satisfied

[ask] Could you verify whether the entry `CC(C)c1ccc(C(=O)N2CCN(CCOC(=O)[C@]34CC[C@@H](C)[C@H](C)[C@H]3C3=CC[C@@H]5[C@@]6(C)CC[C@H](O)C(C)(C)[C@@H]6CC[C@@]5(C)[C@]3(C)CC4)CC2)cc1` shows inhibition of growth at 10 µM of no less than 30%?
[reply] Satisfied

[ask] Hi team, for `C[C@H]1[C@H](C)CC[C@]2(C(=O)OCCN3CCN(C(=O)c4ccccc4)CC3)CC[C@]3(C)C(=CC[C@@H]4[C@@]5(C)CC[C@H](O)C(C)(C)[C@@H]5CC[C@]43C)[C@H]12` , is the recorded inhibition of growth at 10 µM at or above 30%?
[reply] Not satisfied

[ask] // inclusive: inhibition of growth at 10 µM at least 30%? input: `C[C@H]1[C@H](C)CC[C@]2(C(=O)OCCN3CCNCC3)CC[C@]3(C)C(=CC[C@@H]4[C@@]5(C)CC[C@H](O)C(C)(C)[C@@H]5CC[C@]43C)[C@H]12`
[reply] Satisfied

[ask] Does inhibition of growth at 10 µM meet or surpass 30% for `C[C@H]1[C@H](C)CC[C@]2(C(=O)OCCN3CCN(C(=O)c4ccc(F)cc4F)CC3)CC[C@]3(C)C(=CC[C@@H]4[C@@]5(C)CC[C@H](O)C(C)(C)[C@@H]5CC[C@]43C)[C@H]12` ?
[reply] Satisfied

[ask] Does the reported inhibition of growth at 10 µM for `C[C@H]1[C@H](C)CC[C@]2(C(=O)OCCN3CCN(C(=O)c4ccc(F)cc4)CC3)CC[C@]3(C)C(=CC[C@@H]4[C@@]5(C)CC[C@H](O)C(C)(C)[C@@H]5CC[C@]43C)[C@H]12` fall at or above the 30% mark?
[reply] Satisfied

[ask] Decide: is the reported value of inhibition of growth at 10 µM for `C[C@H]1[C@H](C)CC[C@]2(C(=O)OCCN3CCN(C(=O)c4cccnc4)CC3)CC[C@]3(C)C(=CC[C@@H]4[C@@]5(C)CC[C@H](O)C(C)(C)[C@@H]5CC[C@]43C)[C@H]12` equal to or greater than 30%?
[reply] Not satisfied

[ask] Quick check: does `C[C@H]1[C@H](C)CC[C@]2(C(=O)OCCN3CCN(C(=O)c4cc(Cl)ccc4[N+](=O)[O-])CC3)CC[C@]3(C)C(=CC[C@@H]4[C@@]5(C)CC[C@H](O)C(C)(C)[C@@H]5CC[C@]43C)[C@H]12` have inhibition of growth at 10 µM greater than or equal to 30%?
[reply] Satisfied

[ask] Quick check, inhibition of growth at 10 µM >= 30%? `C[C@H]1[C@H](C)CC[C@]2(C(=O)OCCN3CCN(C(=O)c4c(F)cccc4Cl)CC3)CC[C@]3(C)C(=CC[C@@H]4[C@@]5(C)CC[C@H](O)C(C)(C)[C@@H]5CC[C@]43C)[C@H]12`
[reply] Satisfied

[ask] # check: inhibition of growth at 10 µM of CCCCC(CC)C(=O)N1CCN(CCOC(=O)[C@]23CC[C@@H](C)[C@H](C)[C@H]2C2=CC[C@@H]4[C@@]5(C)CC[C@H](O)C(C)(C)[C@@H]5CC[C@@]4(C)[C@]2(C)CC3)CC1 (stereo partly drawn) is greater than or equal to 30%
[reply] Satisfied

[ask] # check: inhibition of growth at 10 µM of `C[C@H]1[C@H](C)CC[C@]2(C(=O)OCCN3CCN(C(=O)c4cccnc4Cl)CC3)CC[C@]3(C)C(=CC[C@@H]4[C@@]5(C)CC[C@H](O)C(C)(C)[C@@H]5CC[C@]43C)[C@H]12` is greater than or equal to 30%
[reply] Satisfied

[ask] Does the reported inhibition of growth at 10 µM for `C[C@H]1[C@H](C)CC[C@]2(C(=O)OCCN3CCN(C(=O)c4ccncc4)CC3)CC[C@]3(C)C(=CC[C@@H]4[C@@]5(C)CC[C@H](O)C(C)(C)[C@@H]5CC[C@]43C)[C@H]12` fall at or above the 30% mark?
[reply] Satisfied

[ask] Would you say `CCCCCCCCC(=O)N1CCN(CCOC(=O)[C@]23CC[C@@H](C)[C@H](C)[C@H]2C2=CC[C@@H]4[C@@]5(C)CC[C@H](O)C(C)(C)[C@@H]5CC[C@@]4(C)[C@]2(C)CC3)CC1` shows inhibition of growth at 10 µM at minimum 30%?
[reply] Satisfied

[ask] Kindly determine if inhibition of growth at 10 µM recorded for `Cc1ccccc1C(=O)N1CCN(CCOC(=O)[C@]23CC[C@@H](C)[C@H](C)[C@H]2C2=CC[C@@H]4[C@@]5(C)CC[C@H](O)C(C)(C)[C@@H]5CC[C@@]4(C)[C@]2(C)CC3)CC1` is above or exactly 30%.
[reply] Satisfied

[ask] Check this molecule for inhibition of growth at 10 µM at or above 30%: `C[C@H]1[C@H](C)CC[C@]2(C(=O)OCCN3CCN(C(=O)c4cc([N+](=O)[O-])cc([N+](=O)[O-])c4)CC3)CC[C@]3(C)C(=CC[C@@H]4[C@@]5(C)CC[C@H](O)C(C)(C)[C@@H]5CC[C@]43C)[C@H]12`
[reply] Not satisfied

src = ChEMBL document CHEMBL2150939
